Value source: patent US5407946A

# experimental-target: thromboxane receptors (Cavia porcellus)
# Construct: U46619 causes a bronchoconstriction which results in an increase in tracheal pressure; from tissue; host or cells: whole anesthetized guinea pig (in vivo, airways)
# method-description: IC50 on the tracheal pressure in guinea pigs (bronchoconstriction induced by U46619 in vivo)
# test-conditions: guinea pig, iv, 5 min; anesthetized guinea pigs, antagonist injected 5 minutes before U46619 (2 μg/kg i.v.), jugular vein; read-out: IC50, antagonist dose which inhibits by 50% the increase in tracheal pressure caused by U46619
# Source text: Male albino guinea pigs (350-400 g), subjected to an 18-hour water diet, are anesthetized with ethylcarbamate (1.25 g/kg i.p.). A catheter is introduced into the carotid artery in order to measure the blood pressure by means of a pressure cell. A second catheter is introduced introduced into the jugular vein and is used for injecting the pharmacological substances. […] A needle pricked into the tracheal cannula is connected to a pressure cell and allows the tracheal pressure to be recorded. […]
measurement-kind: log10(ED50) (log10 of the value in mg/kg)
// stored as log10 of ED50 expressed in mg/kg

>>> val("O=C(O)CCC/C=C\\C[C@@H]1CN(Cc2ccccc2)C[C@@H]1c1ccccc1O (relative stereo) [Example 14]")
0.01

What reported log10(ED50) corresponds to O=C(O)CC/C=C\C[C@@H]1CN(S(=O)(=O)c2cccc3cccnc23)C[C@@H]1c1ccccc1O (relative stereo) [Example 27] on thromboxane receptors (Cavia porcellus)?
-1.52

I'm curious: which log10(ED50) was measured for O=C(O)CC/C=C\C[C@@H]1CN(Cc2ccccc2)C[C@@H]1c1ccccc1O (relative stereo) [Example 15] tested on thromboxane receptors (Cavia porcellus)?
-0.75

Form entry - test system: thromboxane receptors (Cavia porcellus); read-out: log10(ED50); compound: CCCCCCC(=O)N1C[C@@H](C/C=C\CCC(=O)O)[C@@H](c2ccccc2O)C1 (relative stereo) [Example 23]
-0.37

Observed log10(ED50) on thromboxane receptors (Cavia porcellus) for O=C(O)CC/C=C\C[C@@H]1CN(S(=O)(=O)c2cccc3cnccc23)C[C@@H]1c1ccccc1O (relative stereo) [Example 24] , please.
-2.00

Recall the recorded log10(ED50) for CC(C)C(=O)N1C[C@@H](C/C=C\CCC(=O)O)[C@@H](c2ccccc2O)C1 (relative stereo) [Example 19] with thromboxane receptors (Cavia porcellus) and state it.
-1.00

Param readout= log10(ED50); system= thromboxane receptors (Cavia porcellus); entry= O=C(O)CCC/C=C\[C@@H]1CN(Cc2ccccc2)C[C@@H]1c1ccccc1O (relative stereo) [Example 13] ; returns value.
0.36

Which log10(ED50) is reported with thromboxane receptors (Cavia porcellus) for this entry: O=C(O)CC/C=C\C[C@@H]1CN(S(=O)(=O)c2ccc3ccccc3c2)C[C@@H]1c1ccccc1O (relative stereo) [Example 29] ?
-0.96

Form field: log10(ED50) recorded for O=C(O)CC/C=C\C[C@H]1CN(Cc2cccnc2)C[C@H]1c1ccccc1O (relative stereo) [Example 21] with thromboxane receptors (Cavia porcellus) (enter value)
0.01

Record lookup: for thromboxane receptors (Cavia porcellus), what log10(ED50) belongs to O=C(O)CC/C=C\C[C@@H]1CN(S(=O)(=O)c2cccc3cnccc23)C[C@H]1c1ccccc1O (relative stereo) [Example 25] ?
-1.22

Please tell me: log10(ED50) of O=C(O)CC/C=C\C[C@@H]1CN(S(=O)(=O)c2ccc(Cl)cc2)C[C@H]1c1ccccc1O (relative stereo) [Example 18] , system thromboxane receptors (Cavia porcellus)?
-1.52

Form entry - test system: thromboxane receptors (Cavia porcellus); read-out: log10(ED50); compound: O=C(O)CC/C=C\C[C@@H]1CN(C(=O)Nc2ccccc2)C[C@@H]1c1ccccc1O (relative stereo) [Example 22]
0.08

----------
# experimental-target: thromboxane receptors (Cavia porcellus, UniProt A0A286Y4I8)
# Construct: U46619 causes a bronchoconstriction which results in an increase in tracheal pressure; from tissue; host or cells: whole anesthetized guinea pig (in vivo, airways)
# Sequence (A0A286Y4I8 1-347): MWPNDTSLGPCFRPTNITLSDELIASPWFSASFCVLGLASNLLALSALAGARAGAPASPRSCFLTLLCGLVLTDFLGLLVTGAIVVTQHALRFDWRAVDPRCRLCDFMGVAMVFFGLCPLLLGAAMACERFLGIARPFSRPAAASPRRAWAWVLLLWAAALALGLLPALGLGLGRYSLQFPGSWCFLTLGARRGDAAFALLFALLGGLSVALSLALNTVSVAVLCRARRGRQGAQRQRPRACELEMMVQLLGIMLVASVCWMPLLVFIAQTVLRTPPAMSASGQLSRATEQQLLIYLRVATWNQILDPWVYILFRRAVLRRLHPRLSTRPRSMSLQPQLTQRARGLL
# method-description: IC50 on the tracheal pressure in guinea pigs (bronchoconstriction induced by U46619 in vivo)
# test-conditions: guinea pig, iv, 5 min; anesthetized guinea pigs, antagonist injected 5 minutes before U46619 (2 μg/kg i.v.), jugular vein; read-out: IC50, antagonist dose which inhibits by 50% the increase in tracheal pressure caused by U46619
measurement-kind: ED50 (mg/kg)
Give just the number in mg/kg; leave the unit off.

Study these solved cases before continuing.
>>> val("CC(C)C(=O)N1C[C@@H](C/C=C\\CCC(=O)O)[C@H](c2ccccc2O)C1 (relative stereo) [Example 20]")
1.31
>>> val("O=C(O)CC/C=C\\C[C@@H]1CN(S(=O)(=O)c2cccc3ccccc23)C[C@@H]1c1ccccc1O (relative stereo) [Example 28]")
0.01

Please report the recorded ED50 for O=C(O)CCC/C=C\C[C@@H]1CN(S(=O)(=O)c2cccc3cnccc23)C[C@@H]1c1ccccc1O (relative stereo) [Example 30] .
0.08
